# EXPERIMENTAL_SYSTEM: LRRK2 wild type (recombinant human, catalytic domain amino acids 970-2527, GST-tagged) (Homo sapiens, UniProt Q5S007)
# Construct: The wild type used was recombinant human, catalytic domain (amino acids 970-2527) GST-tagged, expressed in insect cells; GST
# Sequence (Q5S007 970-2527): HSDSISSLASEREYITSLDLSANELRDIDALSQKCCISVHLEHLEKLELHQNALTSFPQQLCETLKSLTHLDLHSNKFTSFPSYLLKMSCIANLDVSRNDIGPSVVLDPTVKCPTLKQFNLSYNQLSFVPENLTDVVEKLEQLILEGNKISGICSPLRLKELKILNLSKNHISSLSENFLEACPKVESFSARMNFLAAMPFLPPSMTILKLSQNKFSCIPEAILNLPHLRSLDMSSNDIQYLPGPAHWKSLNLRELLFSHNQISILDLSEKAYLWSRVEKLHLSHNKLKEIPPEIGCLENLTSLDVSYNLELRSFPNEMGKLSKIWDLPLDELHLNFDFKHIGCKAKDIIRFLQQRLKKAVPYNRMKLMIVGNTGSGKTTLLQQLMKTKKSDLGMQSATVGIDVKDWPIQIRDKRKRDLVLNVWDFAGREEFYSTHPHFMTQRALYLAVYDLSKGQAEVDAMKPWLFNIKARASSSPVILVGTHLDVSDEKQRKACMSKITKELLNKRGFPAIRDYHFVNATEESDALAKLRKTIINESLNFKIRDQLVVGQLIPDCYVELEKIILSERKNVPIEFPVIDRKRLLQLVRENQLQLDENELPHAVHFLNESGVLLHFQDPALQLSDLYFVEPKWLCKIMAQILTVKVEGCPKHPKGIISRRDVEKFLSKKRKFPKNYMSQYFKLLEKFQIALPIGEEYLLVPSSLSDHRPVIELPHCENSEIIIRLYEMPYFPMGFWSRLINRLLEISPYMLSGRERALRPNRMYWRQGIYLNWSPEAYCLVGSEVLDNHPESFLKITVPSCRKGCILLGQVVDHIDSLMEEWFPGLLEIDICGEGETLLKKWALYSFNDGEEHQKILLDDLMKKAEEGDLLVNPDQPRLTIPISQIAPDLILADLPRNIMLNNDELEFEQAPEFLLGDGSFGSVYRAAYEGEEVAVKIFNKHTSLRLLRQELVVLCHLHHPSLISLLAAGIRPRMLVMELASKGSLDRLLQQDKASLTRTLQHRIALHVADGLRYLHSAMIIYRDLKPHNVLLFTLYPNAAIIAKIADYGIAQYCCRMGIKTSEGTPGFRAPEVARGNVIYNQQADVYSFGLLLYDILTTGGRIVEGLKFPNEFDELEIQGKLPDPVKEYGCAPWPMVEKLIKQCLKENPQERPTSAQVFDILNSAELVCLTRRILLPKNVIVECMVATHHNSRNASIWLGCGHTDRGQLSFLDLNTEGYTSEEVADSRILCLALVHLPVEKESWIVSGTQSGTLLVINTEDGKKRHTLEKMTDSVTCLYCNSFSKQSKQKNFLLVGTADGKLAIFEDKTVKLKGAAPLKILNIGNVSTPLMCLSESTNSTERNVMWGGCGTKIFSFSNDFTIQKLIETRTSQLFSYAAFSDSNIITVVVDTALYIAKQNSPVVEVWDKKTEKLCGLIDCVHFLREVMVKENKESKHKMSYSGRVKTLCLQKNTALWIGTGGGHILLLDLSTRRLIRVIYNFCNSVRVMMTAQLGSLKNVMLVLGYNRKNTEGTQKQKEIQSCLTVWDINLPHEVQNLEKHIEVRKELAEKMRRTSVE
# PROTOCOL_DESCRIPTION: LRRK2 wild type protein kinase assay ([γ-33P] ATP, peptide substrate […]), IC50
# DETAILS: LRRK2 (variant not given); read-out: Potency score, LRRK2 IC50
# IC50 per entry

Cc1n[nH]c2ccnc(NCC(C)C)c12 : 100 to 1000 nM

Now for a further compound.
What value of IC50 has been reported for the following compound? O=C(c1ccc(CCc2n[nH]c3ccnc(NC4CCCCC4)c23)cc1)N1CC[C@H](c2cccnc2)C1
< 100 nM

---

# EXPERIMENTAL_SYSTEM: LRRK2 wild type (recombinant human, catalytic domain amino acids 970-2527, GST-tagged) (Homo sapiens, UniProt Q5S007)
# Construct: The wild type used was recombinant human, catalytic domain (amino acids 970-2527) GST-tagged, expressed in insect cells; GST
# PROTOCOL_DESCRIPTION: LRRK2 wild type protein kinase assay ([γ-33P] ATP, peptide substrate […]), IC50
# DETAILS: LRRK2 (variant not given); read-out: Potency score, LRRK2 IC50
MEASURE: IC50

Previously resolved entries follow.
C[C@@H]1CCN(C(=O)CCc2n[nH]c3ccnc(NC4CCCCC4)c23)C1 : < 100 nM
Cc1n[nH]c2ccnc(Nc3ccc(S(C)(=O)=O)cc3)c12 : 1000 to 10000 nM
Cc1n[nH]c2ccnc(N[C@H](CO)C(C)C)c12 : 1000 to 10000 nM
COc1ccc(-c2n[nH]c3ccnc(NC4CCCCC4)c23)cn1 : 1000 to 10000 nM
c1ccc(CCc2n[nH]c3ccnc(NC4CCCCC4)c23)cc1 : < 100 nM

What value of IC50 has been reported for the following compound? O=C(CCc1n[nH]c2ccnc(NC3CCCCC3)c12)N1CCCC(c2ccccc2)C1 (stereo not shown)
100 to 1000 nM

What about Cc1n[nH]c2ccnc(NCCCN3CCCC3=O)c12 ?
1000 to 10000 nM

What about O=C(CCc1n[nH]c2ccnc(NC3CCCCC3)c12)NC1CC1 ?
1000 to 10000 nM

What about c1cc2[nH]nc(C3CC3)c2c(NC2CCCCC2)n1 ?
100 to 1000 nM

What about O=C(Nc1ccc(CCc2n[nH]c3ccnc(NC4CCCCC4)c23)cc1)c1ccc2nccnc2c1 ?
< 100 nM

What about Cc1n[nH]c2ccnc(N(C)Cc3ccccc3)c12 ?
1000 to 10000 nM

What about N#Cc1cccc(C(=O)Nc2ccc(CCc3n[nH]c4ccnc(NC5CCCCC5)c34)cc2)c1 ?
< 100 nM

What about O=C(CCc1n[nH]c2ccnc(NC3CCCCC3)c12)N1CCCC(Oc2ccccc2)C1 (stereo not shown) ?
100 to 1000 nM

What about Cc1n[nH]c2ccnc(NCc3cccc(F)c3)c12 ?
1000 to 10000 nM

---

# EXPERIMENTAL_SYSTEM: LRRK2 wild type (recombinant human, catalytic domain amino acids 970-2527, GST-tagged) (Homo sapiens, UniProt Q5S007)
# Construct: The wild type used was recombinant human, catalytic domain (amino acids 970-2527) GST-tagged, expressed in insect cells; GST
# PROTOCOL_DESCRIPTION: LRRK2 wild type protein kinase assay ([γ-33P] ATP, peptide substrate […]), IC50
# DETAILS: LRRK2 (variant not given); read-out: Potency score, LRRK2 IC50
# IC50 per entry

O=C(Nc1ccc(CCc2n[nH]c3ccnc(NC4CCCCC4)c23)cc1)c1cccnc1 : < 100 nM
O=C(CCc1n[nH]c2ccnc(NC3CCCCC3)c12)N1CCC(c2ccccc2)C1 (centres unmarked) : < 100 nM
COCCN1CCN(C(=O)CCc2n[nH]c3ccnc(NC4CCCCC4)c23)CC1 : 100 to 1000 nM

What value of IC50 has been reported for the following molecule? Cc1n[nH]c2ccnc(O[C@@H]3CCC[C@@H]3C)c12 (racemic)
100 to 1000 nM

What about Cc1n[nH]c2ccnc(N3CCN(C)CC3)c12 ?
1000 to 10000 nM

What about O=C(CCc1n[nH]c2ccnc(NC3CCCCC3)c12)N1CCCC(Cc2ccccc2)C1 (centres unmarked) ?
< 100 nM

What about Cc1n[nH]c2ccnc(-c3ccc(CNS(C)(=O)=O)cc3)c12 ?
100 to 1000 nM

What about Cc1n[nH]c2ccnc(OCC3CCCCC3)c12 ?
100 to 1000 nM
